Cited source for all entries: patent US20250268894A1

- Tested on: AGS cells (KRAS G12D)
- Assay Info: Cell viability assay (Cell Counting Kit-8), KRAS G12D
- Format: cell-based
- Protocol Conditions: Homo sapiens, 72 hrs
Please go through the items and note down their IC50.
Your answer should be a plain number; it is taken to be in nM.

Exam item: Give the value of IC50 reported for the following: CO[C@@H](C)c1ncc(N2CCN(CC(F)(F)F)CC2)cc1-c1c2c3c(F)c(ccc3n1CC(F)(F)F)-c1csc(n1)C[C@H](NC(=O)[C@H](C(C)C)N(C)C(=O)N1CCOCC1)C(=O)N1CCC[C@H](N1)C(=O)OCC(C)(C)C2 (atropisomer, axis not shown; (M))
Marked response: 46

Exam item: Give the value of IC50 reported for the following: CO[C@@H](C)c1ncc(N2CCN(C)CC2)cc1-c1c2c3cc(c(F)cc3n1CC(F)(F)F)-c1csc(n1)C[C@H](NC(=O)[C@H](C(C)C)N(C)C(=O)N1CC(N(C)C)C1)C(=O)N1CCC[C@H](N1)C(=O)OCC(C)(C)C2 (atropisomer, axis not shown; (M))
Marked response: 13

Exam item: Give the value of IC50 reported for the following: CCn1c(-c2cc(N3CCN(C)CC3)cnc2[C@H](C)OC)c2c3cc(c(F)cc31)-c1csc(n1)C[C@H](NC(=O)[C@H](C(C)C)N(C)C(=O)N1CCOCC1)C(=O)N1CCC[C@H](N1)C(=O)OCC(C)(C)C2 (atropisomer, axis not shown; (M))
Marked response: 40

Exam item: Give the value of IC50 reported for the following: CCn1c(-c2cc(N3CCOCC3)cnc2[C@H](C)OC)c2c3cc(c(F)cc31)-c1csc(n1)C[C@H](NC(=O)[C@H](C(C)C)N(C)C(=O)NCC(F)(F)F)C(=O)N1CCC[C@H](N1)C(=O)OCC(C)(C)C2 (atropisomer, axis not shown; (M))
Marked response: 447
